# ASSAY_SUMMARY: NCI Yeast Anticancer Drug Screen. Data for the sgs1 mgt1 strain (AID 161);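 also: 0% = growth of cultures given vehicle only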
# STATED_CONDITIONS: S. cerevisiae sgs1 mgt1 strain, at 50.0 µM
This is part of a sample that, as a whole, favours compounds with a hit. Of some 79,000 tested, about 15% had one in any assay. Activity calls are given as the source filed them. Rule as the data show it: active = growth inhibition above about 70%; inactive = the rest.
Answer with one of the outcomes given here: 1 (active), -1 (inactive)

query: Recorded test call requested for Oc1c(N(Cc2ccccc2)Cc2ccccc2)ccc2cccnc12
result: 1

query: So what was the verdict on CC(C)NC(=O)OCc1c2c(n(C)c1COC(=O)NC(C)C)-c1ccccc1CC2 in this test?
result: 1

query: In this assay, the call recorded for CCC[CH2][Ge]([CH2]CCC)([CH2]CCC)[O]C(=O)C(OC(C)=O)c1ccccc1 (stereo unspecified) was what?
result: 1

query: Test call for this compound, please: Cc1csc(N)[n+]1CCC(=O)[O-]
result: -1

query: What call does the record list for Nc1cc(F)c(F)cc1Sc1cc(F)c(F)cc1N ?
result: 1

query: Outcome? CCCCCC/C=C\C=O
result: -1

====

Exercise: for every item that follows, state its recorded growth inhibition.
# ASSAY_SUMMARY: NCI Yeast Anticancer Drug Screen. Data for the cln2 rad14 strain (AID 165);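 also: 0% = growth equal to vehicle treated cultures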
# STATED_CONDITIONS: S. cerevisiae cln2 rad14 strain, at 50.0 µM (retest, dose inferred, filed as 5.0), stronger effect = higher value
Compounds without any hit were thinned out: in the full panel of roughly 79,000, 15% have a hit. The source made the active and inactive calls. Rule as the data show it: active = growth inhibition above about 70%; inactive = the rest.

query: Given the compound CCC(c1ccc(Cl)cc1)C(C#N)c1ccccc1 (stereo not given) , what is its reported growth inhibition?
result: 3% (inactive)

query: What does the data say about its growth inhibition? Entry: O=C(CBr)C1(Br)CCN(Cc2ccccc2)CC1
result: 99% (active)

query: Please give the measured growth inhibition for this compound: CCCCCCc1cc(C(=O)N/N=C\c2cccc([N+](=O)[O-])c2)c2ccccc2n1
result: -17% (inactive)

query: growth inhibition for CCOC(=O)C1(Br)CCN(S(=O)(=O)c2ccc(C)cc2)c2ccccc2C1=O (stereo not given) ?
result: 66% (inactive)

query: Could you share which growth inhibition value was measured for Clc1ccc(CN2COc3c(ccc4cccnc34)C2)c(Cl)c1 ?
result: 98% (active)

query: Could you tell me which growth inhibition is on file for N#Cc1ccc(Cl)cc1[N+](=O)[O-] ?
result: 96% (active)

query: Need growth inhibition of O=C(O)C(Cc1ccc(O)cc1)NC(=O)N(c1ccccc1)c1ccccc1 (stereo not given) , thanks.
result: 39% (inactive)

query: Any idea what growth inhibition was measured for CC(C)=CCC(OC(=O)CC(C)C)C1=CC(=O)c2c(O)ccc(O)c2C1=O (stereo not given) ?
result: 99% (active)

query: Look at this compound and give its reported growth inhibition. C=C1CC2(CCCC3(CC(=C)C(=O)O3)C2(C)C)OC1=O (stereo not given)
result: 96% (active)

query: Using the record for O=[N+]([O-])c1ccc(S(=O)(=O)N/N=C/C=C/c2ccccc2)cc1 , report its growth inhibition.
result: 16% (inactive)

query: Look at this compound and give its reported growth inhibition. CCC(=O)OC1=C(Cl)C(=O)c2ccccc2C1=O
result: 98% (active)

query: Reported growth inhibition for CN1CCCC1c1cccc(Br)c1 (stereo not given) : what is it?
result: 50% (inactive)

query: Which growth inhibition is listed for NC(=O)C12OC3CC(CC(C3)O1)O2 ?
result: 3% (inactive)

query: Entry CN(C)CC(=O)OCC[N+](C)(C)C has what growth inhibition?
result: -10% (inactive)

query: Param item = COc1ccc2cc(CNCCCCCCCCNCc3ccc4cc(OC)ccc4c3)ccc2c1 ; retrieve measured growth inhibition.
result: 99% (active)

query: May I ask what growth inhibition has been recorded for CCCCCCCCCCCCNC(=O)NCC(OCC)OCC ?
result: 95% (active)

query: Query (compound): COC(=O)C1=C(C)NC(C)=C([N+](=O)[O-])C1c1cccc(N=O)c1 (stereo not given) ; field requested: growth inhibition
result: 45% (inactive)

query: Which growth inhibition reading was recorded for the compound O=C1C=CC(=NN=C(c2ccccc2)c2ccccc2)C=C1 ?
result: -17% (inactive)

query: Please look up its growth inhibition: CC(=O)N(C1=C(Cl)C(=O)c2ccccc2C1=O)c1ccc([N+](=O)[O-])cc1
result: 97% (active)

query: # input compound: Cc1ccc(C(=O)/C=C/c2ccco2)c(C)c1 ; wanted: its growth inhibition
result: 5% (inactive)

query: Request the reported growth inhibition associated with COc1ccc(C)cc1NC(=O)ON=C1CCCCC1
result: 81% (active)

query: If you can, please state the reported growth inhibition value of COc1ccc(C(=O)O)c(-c2c(C(=O)O)ccc(OC)c2OC(C)=O)c1 .
result: -2% (inactive)

query: Entry under review: Oc1c(Cl)ccc2cccnc12 . Reported growth inhibition?
result: 97% (active)

query: Need growth inhibition, item Cc1ccc(S(=O)(=O)OCCc2ccc(Cl)cc2)cc1
result: -20% (inactive)

query: Which growth inhibition value belongs to Cc1ccc(S(=O)(=O)CC(=O)CC(=O)C(=O)Nc2cc(C)ccc2C)cc1 ?
result: -1% (inactive)

query: // growth inhibition lookup, key: O=C(O)CC(C(=O)O)C(c1cccc2ccccc12)c1cccc2ccc3ccccc3c12 (stereo not given)
result: 98% (active)

query: Report growth inhibition for CC(C)OP(=O)(CCCCCCCCC/C=C/c1ccc2c(c1)OCCOCCOCCOCCO2)OC(C)C please.
result: 98% (active)

query: For the compound shown here, COC(=O)CC1C(=O)OCc2c1cc1n(c2=O)Cc2c-1nc1ccccc1c2OC (stereo not given) , give the reported growth inhibition.
result: -7% (inactive)

query: What measured growth inhibition goes with C/C(=N/NC(=S)N1CCCC1)c1cccc(/C(C)=N\NC(=S)N2CCCC2)n1 ?
result: -4% (inactive)

query: Quick one: growth inhibition for OC12C3C4CC5C(C4[C@@H]1Br)C2[C@@](O)(c1c(F)c(F)c(F)c(F)c1F)C53 (stereo not given in full) ?
result: 12% (inactive)

query: Requested field: growth inhibition. Item: COC(=O)C(=Cc1c[nH]c2ccccc12)C(=O)OC
result: -4% (inactive)

query: Need growth inhibition, item CNc1ccc2c(c1)Cc1ccccc1-2
result: 79% (active)

query: Which growth inhibition is reported for this compound? CCCCCCCCCCCCCCCCCC[n+]1cccc(C(=O)c2ccccc2)c1
result: 98% (active)

query: I am curious: what growth inhibition value has been reported for COC(=O)C(=O)C(C(=O)C(=O)Nc1ccc(C)cc1C)c1nc2ccccc2[nH]c1=O (stereo not given) ?
result: 5% (inactive)

query: Find the recorded growth inhibition belonging to CN(C)N=Nc1ccc(-c2ccccc2)cc1 and report it.
result: 85% (active)
